Method Summary: basal CRE-LacZ reporter activity in PC12 – cell-based, unstimulated, primary screen (AID 1145)
Test Conditions: no forskolin, luminescence, 4.5 h, higher = more signal, called active from +8 up or from −8 down
Respond with criterion met for z-score values of 0.1 and above, criterion not met for values below.

Evaluate CCCCN1CC=CC23O[C@@H]4/C=C\CCCOC(=O)C4[C@H]2C(=O)N(C(C)CO)[C@@H]3C1=O (some centres undefined) : z-score at minimum 0.1?
criterion not met

Evaluate O=C1OCC=C[C@H]2OC34C=CCN(c5ccc6ccccc6c5)C(=O)[C@H]3N(CCO)C(=O)[C@@H]4[C@@H]12 (some centres undefined) : z-score at minimum 0.1?
criterion met

Evaluate CCCC[C@H]1OB(O)C[C@H]2C1=C(COc1ccccc1)C[C@H]1C(=O)N(Cc3ccccc3)C(=O)[C@H]12 : z-score at minimum 0.1?
criterion met

Evaluate COc1cc(NN2C(C(O)c3ccccc3)C=CC3C(=O)N(c4ccccc4)C(=O)C32)cc(OC)c1OC (centres undefined) : z-score at minimum 0.1?
criterion met

Evaluate O=C1C2C=CC(C(O)c3ccc(Br)cc3)N(n3cnnc3)C2C(=O)N1Cc1ccccc1 (centres undefined) : z-score at minimum 0.1?
criterion met

Evaluate COC(=O)[C@@]1(Cc2ccc(F)cc2)[C@H]2c3cc(C(=O)N(C)C)n(Cc4ccccn4)c3C[C@H]2CN1C(=O)c1ccccc1 : z-score at minimum 0.1?
criterion not met

Evaluate CO[C@H]1O[C@H](CO)[C@@H](OC(=O)Nc2ccc(C(F)(F)F)cc2)[C@H](OC(=O)Nc2ccccc2)[C@@H]1OC(=O)Nc1ccccc1 : z-score at minimum 0.1?
criterion met

Evaluate CC(=O)NCCCC[C@@H]1NC(=O)[C@@H]2C[C@H](C(=O)NCCCCCC[N+](C)(C)C)[C@H](c3cccc(OCCO)c3)N2C1=O : z-score at minimum 0.1?
criterion not met

Evaluate NC(=O)NCC#Cc1ccc2c(c1)[C@]1(C(=O)N2)[C@H](C(=O)NC[C@H](O)c2ccccc2)[C@H]2C(=O)O[C@H](c3ccccc3)[C@H](c3ccccc3)N2[C@@H]1c1ccccc1OCCO : z-score at minimum 0.1?
criterion not met

====

System: Noggin (protein binding on small-molecule microarray)
Method Summary: small molecules binding Noggin protein – biochemical, 635/667 nm fluorescence, primary screen (AID 1095);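 further: score merges 667 nm feature fluorescence with signal to noise over triplicate slides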
Test Conditions: 635 nm fluorescence, higher = more signal
Assignment: determine reported composite z-score for the given molecules.

Per the record, C=CC[C@]1(C(=O)O)N=C(c2ccc(OCCCO)cc2)O[C@H]1c1ccccc1CN=[N+]=[N-] has composite z-score of -0.383

Per the record, COC(=O)[C@@]1(Cc2ccc(OC)cc2)[C@H]2c3cc(C(=O)N4CCCC4)n(CCc4ccccn4)c3C[C@H]2CN1C(=O)c1ccccc1 has composite z-score of -0.857

Per the record, COCCOC(=O)N1C(=O)[C@@]2(c3cc(C#CCCO)ccc31)[C@H](C(=O)NC[C@H](O)c1ccccc1)[C@H]1C(=O)O[C@H](c3ccccc3)[C@H](c3ccccc3)N1[C@@H]2c1ccc(OCCO)cc1 has composite z-score of 0.909

Per the record, OCCCc1cc[n+](Cc2cccc(OC(F)(F)F)c2)cc1 has composite z-score of 0.962

Per the record, O=C(NCC(O)CO)[C@@]1(Cc2ccccc2)COC(c2ccc(OCCCO)cc2)=N1 (stereo partly specified) has composite z-score of -0.891

Per the record, CCN(CC)c1ccc(N2CC=CC34O[C@@H]5/C=C\CCC(C)OC(=O)C5[C@H]3C(=O)N(CCCCCCO)[C@@H]4C2=O)cc1 (stereo partly specified) has composite z-score of -0.668

Per the record, NC(=O)[C@@]1(CCS(=O)(=O)c2ccccc2)N=C(c2ccc(OCCCO)cc2)O[C@H]1c1ccccc1 has composite z-score of -0.316

Per the record, C=C(/C(=C/C[C@@H](OC(C)=O)c1ccc(CO)o1)c1cnc2ccccc2c1)C(C)C has composite z-score of 1.08

Per the record, CCCCCN1CC=CC23O[C@@H]4C=CCCOC(=O)C4[C@H]2C(=O)N(CCCO)[C@@H]3C1=O (stereo partly specified) has composite z-score of -0.272

Per the record, COc1ccc(C(O)C2C=CC3C(=O)N(c4ccccc4)C(=O)C3N2Nc2ccccc2)c2ccccc12 (stereo unspecified) has composite z-score of -0.659

Per the record, O=C1O[C@H](c2ccccc2)[C@H](c2ccccc2)N2[C@H]1[C@@H](C(=O)N1CCCCCCC1)[C@]1(C(=O)Nc3ccc(C#CC4=CCCCC4)cc31)[C@H]2c1ccc(O)cc1 has composite z-score of 2.3

Per the record, COCCOC(=O)N1C(=O)[C@@]2(c3ccccc31)[C@H](C(=O)N1CCCCCCC1)[C@H]1C(=O)O[C@H](c3ccccc3)[C@H](c3ccccc3)N1[C@@H]2c1ccccc1OCCO has composite z-score of 0.785

Per the record, CN1C(=O)C2C=CC(C(O)C(C)(C)C)N(Nc3ccccc3)C2C1=O (stereo unspecified) has composite z-score of -0.611

Per the record, O=C1O[C@H](c2ccccc2)[C@H](c2ccccc2)N2[C@H]1[C@@H](C(=O)Nc1nc3ccccc3s1)[C@]1(C(=O)Nc3ccc(C#CC4=CCCCC4)cc31)[C@H]2c1ccc(OCCO)cc1 has composite z-score of 0.715

Per the record, COCCOC(=O)N1C(=O)[C@@]2(c3cc(C#CCCO)ccc31)[C@H](c1ccc(O)cc1)N1[C@H](c3ccccc3)[C@H](c3ccccc3)OC(=O)[C@H]1[C@@H]2C(=O)N1CCCCCCC1 has composite z-score of 1.29

Per the record, COc1ccc(C#Cc2ccc3c(c2)[C@]2(C(=O)N3)[C@H](C(=O)N3CCc4cc(OC)c(OC)cc4C3)[C@H]3C(=O)O[C@H](c4ccccc4)[C@H](c4ccccc4)N3[C@@H]2c2ccc(OCCO)cc2)cc1 has composite z-score of 1.48

Per the record, O=C1O[C@@H](c2ccccc2)[C@@H](c2ccccc2)N2[C@@H](c3ccc(O)cc3)[C@]3(C(=O)Nc4ccccc43)[C@@H](C(=O)N3CCCCCCC3)[C@H]12 has composite z-score of 0.589

Per the record, O=C1c2ccccc2[C@@]2(Cc3ccccc3N(Cc3ccccc3)C2=O)[C@H](c2ccc(CO)cc2)N1Cc1ccccc1C(F)(F)F has composite z-score of -0.848

Per the record, [N-]=[N+]=NCc1ccccc1C[C@]1(C(=O)NCc2ccccc2)COC(c2ccc(OCCCO)cc2)=N1 has composite z-score of 0.0869

Per the record, C=CCOC(=O)[C@H]1[C@@H]2C(=O)O[C@@H](c3ccccc3)[C@@H](c3ccccc3)N2[C@@H](c2ccc(OCCOC(=O)[C@H]3C[C@H]4C(=O)N[C@@H](CCCC[N+](C)(C)C)C(=O)N4[C@H]3c3ccc(O)cc3)cc2)[C@]12C(=O)Nc1ccccc12 has composite z-score of 1.08

Per the record, O=C1OCC=C[C@H]2OC34C=CCN(c5ccc6ccccc6c5)C(=O)[C@H]3N(CCO)C(=O)[C@@H]4[C@@H]12 (stereo partly specified) has composite z-score of -1.58
